- Target Of Assay: FLT3 (Homo sapiens)
- Construct: purchased Eurofins DiscoverX KINOMEscan (scanTK)
- Experimental Protocol: KINOMEscan ScanTK
- Format: binding
- Condition Parameters: @1000nM, read-out: %Control
Endpoint Name: remaining binding at 1 µM (%)

| Compound | Endpoint Name | Unit Symbol | Data Value |
| --- | --- | --- | --- |
| CNC(=O)c1cnc(S(C)(=O)=O)nc1N1CCCC(n2nc(-c3ccc(Oc4ccccc4)cc3)c3c(N)ncnc32)C1 (centres unmarked) [Compound 8d] | remaining binding at 1 µM | % | 65 |
| Cc1cnc(S(C)(=O)=O)nc1N1CCCC(n2nc(-c3ccc(Oc4ccccc4)cc3)c3c(N)ncnc32)C1 (centres unmarked) [Compound 8a] | remaining binding at 1 µM | % | 54 |
| CCOC(=O)c1cnc(S(C)(=O)=O)nc1N1CCC[C@@H](n2nc(-c3ccc(Oc4ccccc4)cc3)c3c(N)ncnc32)C1 [Compound 8c] | remaining binding at 1 µM | % | 93 |
| COC(=O)c1cnc(S(C)(=O)=O)nc1N1CCCC(n2nc(-c3ccc(Oc4ccccc4)cc3)c3c(N)ncnc32)C1 (centres unmarked) [Compound 8b] | remaining binding at 1 µM | % | 80 |
| C=CC(=O)N1CCC[C@@H](n2nc(-c3ccc(Oc4ccccc4)cc3)c3c(N)ncnc32)C1 [Compound 1g, Ibrutinib, reference compound] | remaining binding at 1 µM | % | 33 |

----------
- Target Of Assay: FLT3(R834Q) (Homo sapiens, UniProt P36888, R834Q)
- Construct: purchased Eurofins DiscoverX KINOMEscan (scanTK)
- Sequence (P36888 27-993 R834Q): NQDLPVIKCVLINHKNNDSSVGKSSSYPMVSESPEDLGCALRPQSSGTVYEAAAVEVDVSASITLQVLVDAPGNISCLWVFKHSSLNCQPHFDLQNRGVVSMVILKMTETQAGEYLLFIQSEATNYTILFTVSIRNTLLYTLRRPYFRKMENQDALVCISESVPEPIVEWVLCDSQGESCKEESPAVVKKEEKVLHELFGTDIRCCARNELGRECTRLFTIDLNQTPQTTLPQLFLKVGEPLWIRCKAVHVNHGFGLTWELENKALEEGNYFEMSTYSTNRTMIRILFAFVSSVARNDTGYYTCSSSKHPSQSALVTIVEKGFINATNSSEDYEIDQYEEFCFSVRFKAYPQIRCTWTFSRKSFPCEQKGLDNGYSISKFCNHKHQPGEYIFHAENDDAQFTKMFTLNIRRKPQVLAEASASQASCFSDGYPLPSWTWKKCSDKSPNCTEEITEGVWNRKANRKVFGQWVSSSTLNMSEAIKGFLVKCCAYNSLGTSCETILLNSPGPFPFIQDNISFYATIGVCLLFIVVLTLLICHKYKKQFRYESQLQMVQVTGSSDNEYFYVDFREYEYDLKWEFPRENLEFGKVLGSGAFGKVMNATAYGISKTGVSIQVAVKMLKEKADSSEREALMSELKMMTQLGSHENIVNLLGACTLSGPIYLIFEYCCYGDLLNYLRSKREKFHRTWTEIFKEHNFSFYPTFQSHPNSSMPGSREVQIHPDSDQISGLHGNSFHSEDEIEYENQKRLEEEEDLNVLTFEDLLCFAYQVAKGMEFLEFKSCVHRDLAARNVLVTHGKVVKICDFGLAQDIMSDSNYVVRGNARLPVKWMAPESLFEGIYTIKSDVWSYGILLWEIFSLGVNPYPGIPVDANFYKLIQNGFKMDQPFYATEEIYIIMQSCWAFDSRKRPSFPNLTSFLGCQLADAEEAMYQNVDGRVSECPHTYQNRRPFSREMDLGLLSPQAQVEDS
- Experimental Protocol: KINOMEscan ScanTK
- Format: binding
- Condition Parameters: @1000nM, read-out: %Control
Entries and their remaining binding at 1 µM
Endpoint Name: remaining binding at 1 µM (%)

| Molecule | Endpoint Name | Data Value |
| --- | --- | --- |
| Cc1cnc(S(C)(=O)=O)nc1N1CCCC(n2nc(-c3ccc(Oc4ccccc4)cc3)c3c(N)ncnc32)C1 (centres unmarked) | remaining binding at 1 µM | 70 |
| C=CC(=O)N1CCC[C@@H](n2nc(-c3ccc(Oc4ccccc4)cc3)c3c(N)ncnc32)C1 [Compound 1g, Ibrutinib, reference compound] | remaining binding at 1 µM | 61 |
| CNC(=O)c1cnc(S(C)(=O)=O)nc1N1CCCC(n2nc(-c3ccc(Oc4ccccc4)cc3)c3c(N)ncnc32)C1 (centres unmarked) | remaining binding at 1 µM | 90 |
| CCOC(=O)c1cnc(S(C)(=O)=O)nc1N1CCC[C@@H](n2nc(-c3ccc(Oc4ccccc4)cc3)c3c(N)ncnc32)C1 | remaining binding at 1 µM | 99 |
| COC(=O)c1cnc(S(C)(=O)=O)nc1N1CCCC(n2nc(-c3ccc(Oc4ccccc4)cc3)c3c(N)ncnc32)C1 (centres unmarked) | remaining binding at 1 µM | 83 |

----------
- Target Of Assay: ABL1-phosphorylated (Homo sapiens, UniProt P00519)
- Construct: purchased Eurofins DiscoverX KINOMEscan (scanTK)
- Sequence (P00519 whole entry): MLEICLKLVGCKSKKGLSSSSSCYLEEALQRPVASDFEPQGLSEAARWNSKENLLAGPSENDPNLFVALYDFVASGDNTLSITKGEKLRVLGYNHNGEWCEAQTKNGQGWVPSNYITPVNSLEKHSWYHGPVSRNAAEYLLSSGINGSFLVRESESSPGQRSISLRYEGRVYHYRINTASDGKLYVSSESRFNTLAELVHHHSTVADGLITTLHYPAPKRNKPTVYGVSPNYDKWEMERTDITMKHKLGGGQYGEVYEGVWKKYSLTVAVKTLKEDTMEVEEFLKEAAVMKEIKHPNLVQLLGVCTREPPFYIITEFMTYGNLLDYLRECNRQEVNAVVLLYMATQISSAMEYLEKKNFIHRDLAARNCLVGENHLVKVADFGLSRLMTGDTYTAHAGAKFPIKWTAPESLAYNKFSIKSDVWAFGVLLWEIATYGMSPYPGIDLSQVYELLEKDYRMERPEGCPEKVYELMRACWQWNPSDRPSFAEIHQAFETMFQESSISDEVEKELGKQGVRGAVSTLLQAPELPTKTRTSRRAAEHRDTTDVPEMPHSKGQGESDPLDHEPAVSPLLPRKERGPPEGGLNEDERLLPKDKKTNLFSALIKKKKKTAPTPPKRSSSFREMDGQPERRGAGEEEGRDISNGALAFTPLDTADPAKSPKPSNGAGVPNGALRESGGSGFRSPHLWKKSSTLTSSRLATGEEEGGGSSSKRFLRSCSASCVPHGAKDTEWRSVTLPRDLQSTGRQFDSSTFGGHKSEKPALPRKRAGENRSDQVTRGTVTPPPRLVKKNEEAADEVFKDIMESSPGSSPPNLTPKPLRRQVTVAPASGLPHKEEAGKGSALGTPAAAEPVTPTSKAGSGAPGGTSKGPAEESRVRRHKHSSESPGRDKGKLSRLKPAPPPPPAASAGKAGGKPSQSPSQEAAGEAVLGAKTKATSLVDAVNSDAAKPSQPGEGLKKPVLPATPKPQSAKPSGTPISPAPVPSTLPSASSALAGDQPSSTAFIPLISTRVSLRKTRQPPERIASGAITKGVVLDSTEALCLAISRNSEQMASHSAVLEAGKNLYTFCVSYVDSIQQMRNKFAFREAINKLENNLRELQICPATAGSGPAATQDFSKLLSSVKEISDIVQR
- Experimental Protocol: KINOMEscan ScanTK
- Type: binding
- Condition Parameters: @1000nM
Endpoint Name: difference in %Control from compound Ib at 1 µM (%)

| Compound | Data Value |
| --- | --- |
| Cc1cnc(S(C)(=O)=O)nc1N1CCCC(n2nc(-c3ccc(Oc4ccccc4)cc3)c3c(N)ncnc32)C1 (stereo not shown) | 20 |
| CCOC(=O)c1cnc(S(C)(=O)=O)nc1N1CCC[C@@H](n2nc(-c3ccc(Oc4ccccc4)cc3)c3c(N)ncnc32)C1 | -3 |
| COC(=O)c1cnc(S(C)(=O)=O)nc1N1CCCC(n2nc(-c3ccc(Oc4ccccc4)cc3)c3c(N)ncnc32)C1 (stereo not shown) | 19 |
| CNC(=O)c1cnc(S(C)(=O)=O)nc1N1CCCC(n2nc(-c3ccc(Oc4ccccc4)cc3)c3c(N)ncnc32)C1 (stereo not shown) | -5 |

----------
Quick list: remaining binding at 1 µM per entry.
- Target Of Assay: FLT3(N841I) (Homo sapiens, UniProt P36888, N841I)
- Construct: purchased Eurofins DiscoverX KINOMEscan (scanTK)
- Experimental Protocol: KINOMEscan ScanTK
- Format: binding
- Condition Parameters: read-out: %Control @1000nM

| Compound | Target Of Assay | remaining binding at 1 µM [%] |
| --- | --- | --- |
| CCOC(=O)c1cnc(S(C)(=O)=O)nc1N1CCC[C@@H](n2nc(-c3ccc(Oc4ccccc4)cc3)c3c(N)ncnc32)C1 | FLT3(N841I) (Homo sapiens, UniProt P36888, N841I) | 73 |
| Cc1cnc(S(C)(=O)=O)nc1N1CCCC(n2nc(-c3ccc(Oc4ccccc4)cc3)c3c(N)ncnc32)C1 (stereo not shown) | FLT3(N841I) (Homo sapiens, UniProt P36888, N841I) | 59 |
| COC(=O)c1cnc(S(C)(=O)=O)nc1N1CCCC(n2nc(-c3ccc(Oc4ccccc4)cc3)c3c(N)ncnc32)C1 (stereo not shown) | FLT3(N841I) (Homo sapiens, UniProt P36888, N841I) | 62 |
| CNC(=O)c1cnc(S(C)(=O)=O)nc1N1CCCC(n2nc(-c3ccc(Oc4ccccc4)cc3)c3c(N)ncnc32)C1 (stereo not shown) | FLT3(N841I) (Homo sapiens, UniProt P36888, N841I) | 56 |

----------
# difference in %Control versus compound Ib at 1 µM listing for each entry below
- Target Of Assay: TRKC (Homo sapiens)
- Construct: purchased Eurofins DiscoverX KINOMEscan (scanTK)
- Sequence (Q16288 32-839): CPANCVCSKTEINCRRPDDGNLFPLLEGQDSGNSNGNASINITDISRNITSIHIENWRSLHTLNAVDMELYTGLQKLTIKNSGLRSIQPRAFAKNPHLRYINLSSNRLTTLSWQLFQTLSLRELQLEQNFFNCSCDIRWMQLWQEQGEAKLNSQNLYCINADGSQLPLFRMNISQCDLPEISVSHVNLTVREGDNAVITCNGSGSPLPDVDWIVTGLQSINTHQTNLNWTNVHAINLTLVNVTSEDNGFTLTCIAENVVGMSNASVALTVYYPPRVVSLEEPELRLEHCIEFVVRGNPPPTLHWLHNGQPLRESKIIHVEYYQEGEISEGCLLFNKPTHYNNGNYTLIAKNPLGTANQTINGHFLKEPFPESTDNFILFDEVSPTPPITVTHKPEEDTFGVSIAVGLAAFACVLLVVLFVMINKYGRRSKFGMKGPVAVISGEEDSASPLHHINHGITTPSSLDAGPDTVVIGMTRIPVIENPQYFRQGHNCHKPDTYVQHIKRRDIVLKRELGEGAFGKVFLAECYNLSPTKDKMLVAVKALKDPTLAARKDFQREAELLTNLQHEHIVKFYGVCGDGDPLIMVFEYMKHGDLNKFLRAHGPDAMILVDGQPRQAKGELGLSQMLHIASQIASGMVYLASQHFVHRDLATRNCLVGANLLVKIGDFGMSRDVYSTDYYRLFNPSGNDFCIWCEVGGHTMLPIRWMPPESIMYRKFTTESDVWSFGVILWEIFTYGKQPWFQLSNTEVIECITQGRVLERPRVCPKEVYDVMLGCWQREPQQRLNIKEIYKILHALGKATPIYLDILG
- Experimental Protocol: KINOMEscan ScanTK
- Format: binding
- Condition Parameters: @1000nM; TRKC
Endpoint Name: difference in %Control versus compound Ib at 1 µM (%)

| Molecule | Data Value |
| --- | --- |
| CCOC(=O)c1cnc(S(C)(=O)=O)nc1N1CCC[C@@H](n2nc(-c3ccc(Oc4ccccc4)cc3)c3c(N)ncnc32)C1 [Compound 8c] | -18 |
| COC(=O)c1cnc(S(C)(=O)=O)nc1N1CCCC(n2nc(-c3ccc(Oc4ccccc4)cc3)c3c(N)ncnc32)C1 (stereo not shown) [Compound 8b] | -17 |
| Cc1cnc(S(C)(=O)=O)nc1N1CCCC(n2nc(-c3ccc(Oc4ccccc4)cc3)c3c(N)ncnc32)C1 (stereo not shown) [Compound 8a] | -17 |
| CNC(=O)c1cnc(S(C)(=O)=O)nc1N1CCCC(n2nc(-c3ccc(Oc4ccccc4)cc3)c3c(N)ncnc32)C1 (stereo not shown) [Compound 8d] | -3 |

----------
// difference in %Control from compound Ib at 1 µM lookup, one value per entry
- Target Of Assay: EPHA6 (Homo sapiens)
- Construct: purchased Eurofins DiscoverX KINOMEscan (scanTK)
- Sequence (Q9UF33 23-1036): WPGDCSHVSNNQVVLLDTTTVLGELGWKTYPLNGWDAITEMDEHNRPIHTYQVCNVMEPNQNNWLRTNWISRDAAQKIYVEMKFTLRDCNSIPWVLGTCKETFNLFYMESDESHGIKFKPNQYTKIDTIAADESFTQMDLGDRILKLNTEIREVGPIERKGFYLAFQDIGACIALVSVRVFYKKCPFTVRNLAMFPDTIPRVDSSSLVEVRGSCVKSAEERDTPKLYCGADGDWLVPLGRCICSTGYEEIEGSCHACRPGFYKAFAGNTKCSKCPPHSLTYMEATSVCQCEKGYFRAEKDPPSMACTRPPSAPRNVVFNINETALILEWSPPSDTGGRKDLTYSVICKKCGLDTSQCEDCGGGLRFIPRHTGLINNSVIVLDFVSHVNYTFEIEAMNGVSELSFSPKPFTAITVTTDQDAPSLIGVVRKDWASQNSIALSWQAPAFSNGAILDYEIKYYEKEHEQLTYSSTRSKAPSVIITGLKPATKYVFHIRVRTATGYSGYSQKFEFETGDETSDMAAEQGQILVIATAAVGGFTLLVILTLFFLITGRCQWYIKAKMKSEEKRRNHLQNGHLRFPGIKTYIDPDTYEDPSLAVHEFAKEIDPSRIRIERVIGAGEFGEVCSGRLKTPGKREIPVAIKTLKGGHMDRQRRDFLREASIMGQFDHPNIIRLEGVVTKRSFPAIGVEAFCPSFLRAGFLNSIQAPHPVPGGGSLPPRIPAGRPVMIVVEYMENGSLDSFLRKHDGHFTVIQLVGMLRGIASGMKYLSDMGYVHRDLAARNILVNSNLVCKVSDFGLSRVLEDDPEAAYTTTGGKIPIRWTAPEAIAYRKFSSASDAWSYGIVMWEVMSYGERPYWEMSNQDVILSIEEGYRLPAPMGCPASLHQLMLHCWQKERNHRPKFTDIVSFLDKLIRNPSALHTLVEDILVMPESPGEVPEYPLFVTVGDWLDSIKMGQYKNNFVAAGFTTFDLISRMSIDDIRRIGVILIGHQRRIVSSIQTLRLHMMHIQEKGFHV
- Experimental Protocol: KINOMEscan ScanTK
- Format: binding
- Condition Parameters: @1000nM
Endpoint Name: difference in %Control from compound Ib at 1 µM (%)

| Molecule | Data Value |
| --- | --- |
| Cc1cnc(S(C)(=O)=O)nc1N1CCCC(n2nc(-c3ccc(Oc4ccccc4)cc3)c3c(N)ncnc32)C1 (stereo not shown) | 23 |
| CNC(=O)c1cnc(S(C)(=O)=O)nc1N1CCCC(n2nc(-c3ccc(Oc4ccccc4)cc3)c3c(N)ncnc32)C1 (stereo not shown) | 20 |
| COC(=O)c1cnc(S(C)(=O)=O)nc1N1CCCC(n2nc(-c3ccc(Oc4ccccc4)cc3)c3c(N)ncnc32)C1 (stereo not shown) | 15 |
| CCOC(=O)c1cnc(S(C)(=O)=O)nc1N1CCC[C@@H](n2nc(-c3ccc(Oc4ccccc4)cc3)c3c(N)ncnc32)C1 | 10 |
